Ref: patent US20180194762A1

Molecular target: panel of kinases (Homo sapiens, UniProt P51813)
Sequence (P51813 1-675): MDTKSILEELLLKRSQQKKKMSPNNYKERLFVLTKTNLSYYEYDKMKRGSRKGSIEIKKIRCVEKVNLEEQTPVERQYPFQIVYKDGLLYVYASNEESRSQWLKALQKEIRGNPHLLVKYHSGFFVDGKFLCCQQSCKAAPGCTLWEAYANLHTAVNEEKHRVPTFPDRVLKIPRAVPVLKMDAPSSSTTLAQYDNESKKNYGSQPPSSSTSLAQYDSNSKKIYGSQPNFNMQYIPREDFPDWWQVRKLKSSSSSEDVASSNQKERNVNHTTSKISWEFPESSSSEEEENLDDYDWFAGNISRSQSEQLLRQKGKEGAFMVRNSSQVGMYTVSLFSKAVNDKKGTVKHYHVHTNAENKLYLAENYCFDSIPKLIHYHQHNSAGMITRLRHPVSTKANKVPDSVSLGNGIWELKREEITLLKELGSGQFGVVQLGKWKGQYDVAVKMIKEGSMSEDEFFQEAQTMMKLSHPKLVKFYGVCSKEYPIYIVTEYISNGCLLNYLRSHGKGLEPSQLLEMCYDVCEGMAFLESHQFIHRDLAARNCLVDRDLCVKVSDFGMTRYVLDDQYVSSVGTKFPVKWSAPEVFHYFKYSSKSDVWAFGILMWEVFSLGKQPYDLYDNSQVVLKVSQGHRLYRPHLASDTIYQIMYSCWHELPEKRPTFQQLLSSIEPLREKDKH
pIC50: −log10 of the molar value.
Measured attribute: pIC50

molecule="C[C@H]1NCCC[C@H]1Nc1n[nH]c2nccc(-c3ccc(CNC(=O)c4noc(C(C)(C)C)n4)c(F)c3)c12 [Example 55]" target_under_test="panel of kinases (Homo sapiens, UniProt P51813)" result="< 5.00"
molecule="CC#CC(=O)N1CC[C@@H](Nc2n[nH]c3nccc(-c4cccc(NC(=O)c5ccc(C(C)(C)C)cc5)c4C)c23)C1 [Compound 10]" target_under_test="panel of kinases (Homo sapiens, UniProt P51813)" result="< 5.00"
molecule="CC(C)(C)c1ccc2c(c1)CCN(Cc1ccc(-c3ccnc4[nH]nc(N[C@@H]5CCNC5)c34)cc1F)C2=O [Compound 36]" target_under_test="panel of kinases (Homo sapiens, UniProt P51813)" result="< 5.00"
molecule="CC(C)(C)c1noc(C(=O)NC2(c3ccc(-c4ccnc5[nH]nc(N[C@@H]6CCNC6)c45)cc3)CC2)n1 [Example 71]" target_under_test="panel of kinases (Homo sapiens, UniProt P51813)" result="< 5.00"
molecule="Cn1c(C(=O)NCc2ccc(-c3ccnc4[nH]nc(N[C@@H]5CCNC5)c34)cc2F)cc2c1CC(C)(C)C2 [Example 157]" target_under_test="panel of kinases (Homo sapiens, UniProt P51813)" result="< 5.00"

Okay, now this molecule:
query: Which pIC50 is reported for this molecule? CC(C)(C)c1ccc(C(=O)NCc2ccc(-c3ccnc4[nH]nc(N[C@H]5CC[C@H](O)CC5)c34)cc2)cc1 [Compound 23]
result: < 5.00

----------
target: Btk (Homo sapiens); construct: purified from insect cells as a full-length construct containing a N-terminal 6X-His tag; His6 (N); made in house; host or cells: insect cells (Method C); assay: Btk in vitro inhibitory activity (one of Method A TR-FRET, Method B electrophoretic mobility shift, Method C radiometric filter binding); format: biochemical; details: wild-type Btk; read-out: Btk-WT IC50
Sequence (Q06187 whole entry): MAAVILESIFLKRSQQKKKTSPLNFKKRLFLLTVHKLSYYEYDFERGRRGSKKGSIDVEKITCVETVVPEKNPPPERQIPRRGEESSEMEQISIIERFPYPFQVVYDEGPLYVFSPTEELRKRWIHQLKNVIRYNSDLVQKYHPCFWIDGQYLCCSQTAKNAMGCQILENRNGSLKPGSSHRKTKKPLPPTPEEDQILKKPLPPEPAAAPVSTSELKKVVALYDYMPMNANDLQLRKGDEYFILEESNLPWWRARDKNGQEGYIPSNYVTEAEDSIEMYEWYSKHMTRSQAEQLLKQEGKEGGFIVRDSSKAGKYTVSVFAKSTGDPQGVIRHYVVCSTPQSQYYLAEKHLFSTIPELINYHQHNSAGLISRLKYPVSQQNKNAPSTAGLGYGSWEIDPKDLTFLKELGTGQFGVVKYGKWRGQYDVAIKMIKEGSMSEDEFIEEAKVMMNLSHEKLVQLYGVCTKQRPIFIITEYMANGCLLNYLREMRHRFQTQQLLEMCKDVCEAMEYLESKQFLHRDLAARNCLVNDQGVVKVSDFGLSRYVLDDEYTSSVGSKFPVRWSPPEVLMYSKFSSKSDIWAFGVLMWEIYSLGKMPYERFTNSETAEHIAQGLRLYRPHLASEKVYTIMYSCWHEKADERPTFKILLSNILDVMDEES
A collection of molecules and their measured IC50
Quick note: give the figure in nM, leave out the unit.

molecule="CC(C)(C)c1cc(C(=O)NCc2ccc(-c3ccnc4[nH]nc(N5CC[C@@H](N)C5)c34)cc2F)no1 [Example 307]" result=3.33
molecule="CC(C)(C)c1nnc(C(=O)NCc2ccc(-c3ccnc4[nH]nc(N[C@@H]5CCNC5)c34)cc2F)o1 [Example 77]" result=159

query: Report IC50 for C=CC(=O)N1CC[C@@H](Nc2n[nH]c3nccc(-c4ccc(CNC(=O)c5nc(C(C)(C)C)n[nH]5)c(F)c4)c23)C1 [Example 82] tested on Btk (Homo sapiens).
result: 30.6

----------
target: TEC (Homo sapiens); experiment: Inhibition of a panel of kinases (in vitro HotSpot kinase assay, 33P-ATP, 1 μM ATP); assay type: biochemical; conditions: ratio of TEC IC50 to Btk IC50 (selectivity)
Measured attribute: TEC/Btk
Number, no unit, nothing else.

The examples below pair each entry with its known result.
molecule_smiles=C=CC(=O)N1CC[C@@H](Nc2n[nH]c3nccc(-c4ccc(C(C)(C)NC(=O)c5noc(C(C)(C)C)n5)cc4)c23)C1 measured_attribute=TEC/Btk result=252
molecule_smiles=C=CC(=O)N1CC[C@@H](Nc2n[nH]c3nccc(-c4ccc(CNC(=O)c5ccc(OC)cc5)c(F)c4)c23)C1 measured_attribute=TEC/Btk result=39
molecule_smiles=CN(C)C(=O)N1CC[C@@H](Nc2n[nH]c3nccc(-c4ccc(CNC(=O)c5cc(C(C)(C)C)on5)c(F)c4)c23)C1 measured_attribute=TEC/Btk result=246
molecule_smiles=CC(C)c1cc(C(=O)NCc2ccc(-c3ccnc4[nH]nc(N5CC[C@@H](N)C5)c34)cc2F)on1 measured_attribute=TEC/Btk result=180
molecule_smiles=C[C@@H]1[C@H](Nc2n[nH]c3nccc(-c4ccc(CNC(=O)c5noc(C(C)(C)C)n5)c(F)c4)c23)CCCN1S(=O)(=O)C1CC1 measured_attribute=TEC/Btk result=102

query: Notebook entry, TEC (Homo sapiens) assay: TEC/Btk of `C=CC(=O)N1CCC(Nc2n[nH]c3nccc(-c4ccc(CNC(=O)c5noc(C(C)(C)C)n5)c(F)c4)c23)CC1` = ?
result: 1028

query: What value of TEC/Btk on TEC (Homo sapiens) does `C[C@@H](NC(=O)c1nc(C(C)(C)C)no1)c1ccc(-c2ccnc3[nH]nc(N4CCS(=O)(=O)CC4)c23)cc1` have?
result: 6013

query: Look up TEC/Btk with TEC (Homo sapiens) for this compound: `CC(C)(C)c1noc(C(=O)NCc2ccc(-c3ccnc4[nH]nc(N5CCC(N)CC5)c34)cc2F)n1`
result: 1207

query: Item `C=CC(=O)N1CC[C@@H](Nc2n[nH]c3nccc(-c4ccc(CN5CCc6cc(C(C)(C)C)ccc6C5=O)c(F)c4)c23)C1` with TEC (Homo sapiens) - TEC/Btk?
result: 217

----------
Below, each of the compounds is paired with its reported IC50 value.
Target chain: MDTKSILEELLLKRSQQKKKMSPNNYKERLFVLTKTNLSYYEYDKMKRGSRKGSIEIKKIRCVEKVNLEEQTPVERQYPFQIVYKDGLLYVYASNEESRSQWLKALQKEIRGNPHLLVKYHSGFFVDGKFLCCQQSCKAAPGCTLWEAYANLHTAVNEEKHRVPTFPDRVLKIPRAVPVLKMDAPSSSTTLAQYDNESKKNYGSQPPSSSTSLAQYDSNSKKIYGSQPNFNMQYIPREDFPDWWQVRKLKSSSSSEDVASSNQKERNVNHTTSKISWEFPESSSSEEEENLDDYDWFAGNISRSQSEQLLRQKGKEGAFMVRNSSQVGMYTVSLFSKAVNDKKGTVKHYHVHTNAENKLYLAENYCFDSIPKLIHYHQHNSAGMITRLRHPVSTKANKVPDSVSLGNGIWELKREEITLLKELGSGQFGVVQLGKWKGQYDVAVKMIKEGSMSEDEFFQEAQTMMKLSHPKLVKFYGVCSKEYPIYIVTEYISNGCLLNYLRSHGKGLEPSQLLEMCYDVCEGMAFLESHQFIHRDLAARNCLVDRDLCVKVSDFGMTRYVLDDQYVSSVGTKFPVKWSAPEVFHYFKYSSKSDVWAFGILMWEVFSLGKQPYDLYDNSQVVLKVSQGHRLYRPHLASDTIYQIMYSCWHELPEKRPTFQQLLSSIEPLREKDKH

compound="CC(C)(C)c1n[nH]c(C(=O)NCc2ccc(-c3ccnc4[nH]nc(N[C@@H]5CCNC5)c34)cc2F)n1 [Example 78]" result="> 10 µM"
compound="C=CC(=O)N1CC(Nc2n[nH]c3nccc(-c4ccc(CNC(=O)c5noc(C(C)(C)C)n5)c(F)c4)c23)C1 [Example 107]" result="> 10 µM"

query: Need IC50, item C[C@@H](NC(=O)c1cc(C(C)(C)O)on1)c1ccc(-c2ccnc3[nH]nc(NC4CCN(S(C)(=O)=O)CC4)c23)cc1 [Example 203]
result: > 10 µM

----------
Target: TEC (Homo sapiens, UniProt P42680)
Sequence (P42680 1-631): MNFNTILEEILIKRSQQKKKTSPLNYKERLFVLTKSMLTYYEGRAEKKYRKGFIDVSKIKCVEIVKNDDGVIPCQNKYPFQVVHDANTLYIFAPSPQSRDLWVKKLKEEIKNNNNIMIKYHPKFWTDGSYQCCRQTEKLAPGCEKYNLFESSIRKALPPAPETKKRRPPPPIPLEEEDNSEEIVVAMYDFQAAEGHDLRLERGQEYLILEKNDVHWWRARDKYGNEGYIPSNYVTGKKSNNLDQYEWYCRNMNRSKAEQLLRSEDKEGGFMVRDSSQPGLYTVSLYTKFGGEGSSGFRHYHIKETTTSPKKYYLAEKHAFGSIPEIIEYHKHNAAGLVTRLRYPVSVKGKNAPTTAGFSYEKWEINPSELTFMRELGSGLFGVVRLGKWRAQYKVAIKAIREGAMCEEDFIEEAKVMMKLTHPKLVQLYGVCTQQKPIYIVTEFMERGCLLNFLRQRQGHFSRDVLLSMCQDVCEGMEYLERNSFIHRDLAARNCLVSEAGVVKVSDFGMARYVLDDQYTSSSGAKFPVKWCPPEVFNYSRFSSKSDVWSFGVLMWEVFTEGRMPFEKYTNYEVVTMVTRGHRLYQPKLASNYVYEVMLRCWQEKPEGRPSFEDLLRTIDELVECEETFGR
Test: Inhibition of a panel of kinases (in vitro HotSpot kinase assay, 33P-ATP, 1 μM ATP)
Format: biochemical
Settings: ratio of TEC IC50 to Btk IC50 (selectivity)
Documented TEC/Btk across a set of molecules
No unit in the answer, please; the number alone is enough.

Solved cases below.
molecule_smiles=CC(C)(C)c1nc(C(=O)NCc2ccc(-c3ccnc4[nH]nc(N5CCC[C@H](C(=O)O)C5)c34)cc2F)no1 result=755
molecule_smiles=C=CC(=O)N1CC[C@@H](Nc2n[nH]c3nccc(-c4cccc(NC(=O)c5noc(C(C)(C)C)n5)c4)c23)C1 result=014
molecule_smiles=C=CC(=O)N1CC[C@@H](Nc2n[nH]c3nccc(-c4ccc(CNC(=O)c5cc6c(n5C)CC(C)(C)C6)c(F)c4)c23)C1 result=51
molecule_smiles=C=CC(=O)N1CC[C@@H](Nc2n[nH]c3nccc(-c4ccc(CNC(=O)c5noc(C(C)(C)C)n5)cc4)c23)C1 result=289
molecule_smiles=CN1CCCN([C@@H]2CCN(c3n[nH]c4nccc(-c5ccc(CNC(=O)c6nc(C(C)(C)C)no6)c(F)c5)c34)C2)C1=O result=1175
molecule_smiles=C=CC(=O)N1CC[C@@H](Nc2n[nH]c3nccc(-c4cccc(NC(=O)c5noc(C(C)(C)C)n5)c4C)c23)C1 result=005

query: Sample `C=CC(=O)N1CC[C@@H](Nc2n[nH]c3nccc(-c4cccc(-n5ccc6cc(C7CC7)cc(F)c6c5=O)c4CO)c23)C1` — what was its TEC/Btk?
result: 23

query: Given the molecule `Cc1c(NC(=O)c2ccc(C(C)(C)C)cc2)cccc1-c1ccnc2[nH]nc(N[C@H]3CC[C@H](O)CC3)c12` , what is its reported TEC/Btk?
result: 10

query: Entry under review: `C[C@@H](NC(=O)c1cc(C(C)(C)O)on1)c1ccc(-c2ccnc3[nH]nc(N[C@@H]4CC[C@H](C)N(C(=O)N(C)C)C4)c23)cc1F` . Reported TEC/Btk?
result: 105

query: # TEC/Btk lookup, item `CC(C)c1noc(C(=O)NCc2ccc(-c3ccnc4[nH]nc(N5CC[C@@H](N)C5)c34)cc2F)n1`
result: 166
